- Experiment description: protein stability index of a GFP-peptide fusion (GPS, HEK-293T) (PSI 1-6); higher = more stable;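 note: 24-mer peptide tiles fused after GFP, lentivirally expressed, FACS-sorted into six equal bins by GFP/DsRed ratio, decoded by Illumina sequencing, PSI is the read-weighted mean bin number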
- Measurement context: treatment: DMSO; c terminus: a fixed tail appended
Satisfied means recorded protein stability index is 4 or above; Not satisfied means it is below 4.

Below, 4 sequences whose answers are already recorded.
SCNDSKLEFRSFWELIGEAAKSVK [S100A14] :: Not satisfied
RVQAALVWERPARSALWCLGLNAA [RETREG3] :: Not satisfied
FQIAANLSMERYALVFGVNTFIAL [SLC19A2] :: Not satisfied
SPVAHKHLSRQKIDPLLYMTEWFM [TBC1D10A] :: Not satisfied

# input for lookup
// inclusive: protein stability index at least 4? input: VNPAYPESRYTSDYFISYGIEHAQ [ETS1]
Not satisfied

---

- Experiment description: protein stability index of a GFP-peptide fusion (GPS, HEK-293T) (PSI 1-6); higher = more stable
- Measurement context: treatment: DMSO; c terminus: a fixed tail appended
Measure name: protein stability index

// below: answered sequences
LRNNFQKQLLSNKELILDKVYTHP [ZC2HC1C] :: 2.76
FIPSSHNDRDFLTRIFTEDRFAQD [PPEF2] :: 2.58
RLNKLRLESEGSPETLTNLRKGYL [HACD3] :: 3.25
EAVSDSTPFLTNHGAHKAEKKLFE [ZNF263] :: 4.65
IFTTPNFDETSSATTISTSEDGSY [KMT2E] :: 4.75

Please report the recorded protein stability index for AAIAFTLALFSHLVNHVNIRLQAE [SMG5] .
3.22

May I ask what protein stability index has been recorded for EVLSKALSQRTITVGVYEAAKLLN [GADD45A] ?
2.77

---

- Experiment description: protein stability index of a GFP-peptide fusion (GPS, HEK-293T) (PSI 1-6); higher = more stable
- Measurement context: treatment: DMSO; c terminus: a fixed tail appended
protein stability index of 4 or higher: Criterion met. Under 4: Criterion not met.

AEQEALTGECKELEKKNEALKERA [ATF4] :: Criterion met

Check if protein stability index >= 4 (inclusive). Item: FTRSQTLIQNGGEIDCVDKDGNTP [ANKRD44]
Criterion met

---

- Experiment description: protein stability index of a GFP-peptide fusion (GPS, HEK-293T) (PSI 1-6); higher = more stable
- Measurement context: treatment: MLN4924 1 uM, 8 h; c terminus: a fixed tail appended
Quick reference for protein stability index among some sequences
No unit in the answer, only the number.

LSLGALVALCWQLGLLFERHWHRP [SCNN1D] :: 3.16
LDSEKPKKLRFHPKQLYFSARQGE [EHMT1] :: 3.4
PAPLLVLCPSRAELDRWLYHLEKQ [PLEKHN1] :: 2.17
EIEQLLARLTGVNDKMAEYTNSAG [GOSR1] :: 2.46

Which protein stability index reading was recorded for the sequence MFGFFFGRTPLIKLSPKKTWEGFI [CDS2] ?
2.35

Bench note: what protein stability index did QFTAWPDHGVPEHPTPFLAFLRRV [PTPRD] show?
2.76

Looking for the measured protein stability index of VKEWFGLGGEQAEEKAFESVIEPV [MIA2] , can you help?
4.04

Item under review: MASVRIREAKEGDCGDILRLIREL [SAT2] . Reported protein stability index?
3.23

---

- Experiment description: protein stability index of a GFP-peptide fusion (GPS, HEK-293T) (PSI 1-6); higher = more stable
- Measurement context: treatment: DMSO; c terminus: a fixed tail appended
The threshold is inclusive: protein stability index of exactly 3 counts as MET; values below receive NOT MET.

EAPALGGGEYQEPGGNVKGVWAPP [BEX5] :: MET
VQAPSYGARPVSSAASVYAGAGGS [KRT18] :: MET
DFGLAIEVQGDQQAWFGFAGTPGY [CAMK2B] :: NOT MET
PGNPSLHSRFVELSEAYRVLSREQ [DNAJC4] :: MET
REKEDYLHLKRQPKRRWLFWNSPS [RHOBTB2] :: NOT MET

Does protein stability index meet or surpass 3 for YSKTFQRSNVDFLETPELTSTMLV [NECAB1] ?
NOT MET

Is it the case that WNDCISSGLRGGILIELAMRGRIY [GOLPH3L] has protein stability index reaching or exceeding 3?
NOT MET

Identify whether the reported protein stability index of the following sequence is 3 or greater: IVDPTTGKRYCRGKVLGKGGFAKC [PLK2]
NOT MET

State whether the measured protein stability index reaches 3, counting equality as reaching it, for IYGGELGPMMKLKRHFVAQKYKKQ [ACSBG2]
NOT MET

Test whether the sequence DDGIKVVKVTFNKQDSLVILTIMA [TMEM106C] records protein stability index of 3 or higher.
NOT MET

Evaluate RDTRDYAPPPRDYTYRDYGHSSSR [RBMX] : protein stability index at minimum 3?
MET

Would you say NGPLGPSEASIASNLQAMSTQMFQ [SMG5] shows protein stability index at minimum 3?
MET

Reported protein stability index reaches at least 3 for HESVCKYYLCGFCPAELFTNTRSD [LUC7L3] ?
NOT MET

Check the entry PMNRRNILVMKHNYSQDAADACDI [NETO1] : does protein stability index equal or exceed 3?
MET

Has TSLKTKFPAEQYYRFHEHWRFVLQ [TSN] a recorded protein stability index greater than or equal to 3?
NOT MET

Say whether GIVGLNNIKANDYANAVLQALSNV [USP39] shows protein stability index of 3 or more.
NOT MET

Quick check, protein stability index >= 3? SRILKKTVYNEMDKNRCELLSFLL [EDNRA]
NOT MET

Could you please find out whether QFTAWPDHGVPEHPTPFLAFLRRV [PTPRD] has protein stability index that meets 3 or exceeds it?
NOT MET

---

- Experiment description: protein stability index of a GFP-peptide fusion (GPS, HEK-293T) (PSI 1-6); higher = more stable
- Measurement context: treatment: MLN4924 1 uM, 8 h; c terminus: a fixed tail appended
I'd appreciate it if you could label each record using protein stability index and these ranges: low bin: < 4; mid bin: ≥ 4 and < 5; high bin: ≥ 5

Worked examples follow.
IVEVLGIPPAAMLDQAPKARKYFE [DYRK1B] :: low bin
TGHGVSRGPSPVVLGSQDALPIAT [FCHO1] :: mid bin
MTHQNVELFKELSINVMKQLIGSS [GMCL1] :: low bin
GSQPNSGLALESSSGLQDVTGPDN [NFE2L1] :: high bin
AEDWFFSKTEELNREVATNSELVQ [KRT17] :: mid bin
KSGPGDGFFSSAFQARLSGNNLHN [POMT2] :: low bin
GAAFRDHQLLEPIRDFEARKCPVH [TRIM29] :: low bin
DGASQDCPPLPAGVSFHIDSAELE [FBXO34] :: high bin

Textbook exercise: identify the category of the sequence given here, RVRRFQVVEVTKGILEHVDSASPV [M1AP] , according to its measured value.
low bin

Into which bin does this sequence go? NLEGNELQRHADEFLLDLGHHERS [FUT8]
mid bin

---

- Experiment description: protein stability index of a GFP-peptide fusion (GPS, HEK-293T) (PSI 1-6); higher = more stable
- Measurement context: treatment: MLN4924 1 uM, 8 h; c terminus: a fixed tail appended
Measure name: protein stability index
The response must contain the number and no unit.

CGRAFSRKSLLVVHQRTHTGEKPH [ZNF649] :: 2.64
VVLDMEEGTLGYAIGGTYLGPAFR [SPSB2] :: 2.19
LRNNFQKQLLSNKELILDKVYTHP [ZC2HC1C] :: 3.08
EVDAAPPVDLNKILEDMRCQYEAL [KRT36] :: 4.68
NEGLMKWENRHEGVFKFLRSEAVA [ELF3] :: 3.09
FDTNAEGCILQWKKIYCRICMAQI [ZBED1] :: 2.04

// query protein stability index value for entry IYGGELGPMMKLKRHFVAQKYKKQ [ACSBG2]
2.85

---

- Experiment description: protein stability index of a GFP-peptide fusion (GPS, HEK-293T) (PSI 1-6); higher = more stable
- Measurement context: treatment: MLN4924 1 uM, 8 h; c terminus: a fixed tail appended
Measure name: protein stability index
Give only the figure.

// worked examples, protein stability index included
RNRPSFDAILYYYQSGGRLKRPVN [KCNA4] :: 2.42
LHVNPKKQTIGNSCKACGYRGMLD [EIF5] :: 2.44
LLQLSDACRFQEDQEMARDLVERA [TCF25] :: 3.77
PPETSLPYKWVVEAANLLIPAVGS [MYBL2] :: 2.27
PVSMEMDNHMSDKDESCYDNAEAA [INTS3] :: 5.53

I'd like to know its protein stability index. The sequence in question is MDDQGCPRCKTTKYRNPSLKLMVN [MNAT1]
3.21

# query: protein stability index of entry KPDDEVKETAHDLDVKSPPEPRSE [RIPK4]
5.61

Using the record for PDKESMYYPRVQHYRELLDSLPMD [GDAP1] , report its protein stability index.
3.48

Fill in the blank: the reported protein stability index of EIFRQRFRQFGYQDSPGPREAVSQ [ZNF24] is ____.
3.25

Value lookup for protein stability index; key = KHNHSKSTWLILHHKVYDLTKFLE [CYB5A]
2.49

Field request: protein stability index | item: ESYPEDTVFYIPEDHKPGTFPKAL [DLC1]
4.22

Any idea what its protein stability index is? The sequence is EIILYWKHSTIFDVGENLTVPDEF [SLC25A25]
2.1

Quick check: protein stability index of RLNKLRLESEGSPETLTNLRKGYL [HACD3] ?
3.35
